target: NAD-dependent protein deacetylase sirtuin-2 (Homo sapiens); test: Substrate activity at human N-terminal His-tagged SIRT2 (56 to 356 residues) expressed in Escherichia coli at 5 uM measured after 2 hrs in presence of NAD+ and trypsin by fluorescence assay
Where a SMILES comes first, the peptide text is derived from it. The star is where a group is joined. AMC = Cc1cc(=O)oc2cc(N*)ccc12; Decanoyl = CCCCCCCCCC(=O)*
EXPERIMENTAL ENDPOINT: Activity (RFU)

[[record]]
compound = "CC(=O)NCCCC[C@H](NC(=O)[C@H](CCCCN)NC(=O)[C@H](Cc1cnc[nH]1)NC(=O)[C@H](CCCNC(=N)N)NC(C)=O)C(=O)Nc1ccc2c(C)cc(=O)oc2c1 (Ac-RHKK(Ac)-{AMC})"
experimental_endpoint = "Activity"
unit_descriptor = "RFU"
meas_value = 0.73

[[record]]
compound = "CCCCCCCCCC(=O)NCCCC[C@H](NC(=O)[C@H](CCCNC(=N)N)NC(=O)[C@H](CC(C)C)NC(=O)[C@H](CC(=O)O)NC(C)=O)C(=O)Nc1ccc2c(C)cc(=O)oc2c1 (Ac-DLRK(Decanoyl)-{AMC})"
experimental_endpoint = "Activity"
unit_descriptor = "RFU"
meas_value = 1.03

[[record]]
compound = "CC(=O)NCCCC[C@H](NC(=O)[C@H](CCCNC(=N)N)NC(=O)[C@H](C)NC(=O)[C@@H](NC(C)=O)[C@@H](C)O)C(=O)Nc1ccc2c(C)cc(=O)oc2c1 (Ac-TARK(Ac)-{AMC})"
experimental_endpoint = "Activity"
unit_descriptor = "RFU"
meas_value = 0.22


[A] CCCCCCCCCC(=O)NCCCC[C@H](NC(=O)[C@H](CCC(N)=O)NC(=O)[C@@H](NC(=O)[C@H](CCCCN)NC(C)=O)C(C)C)C(=O)Nc1ccc2c(C)cc(=O)oc2c1 (Ac-KVQK(Decanoyl)-{AMC})
[B] CCCCCCCCCC(=O)NCCCC[C@H](NC(=O)[C@H](CCCNC(=N)N)NC(=O)[C@H](C)NC(=O)[C@@H](NC(C)=O)[C@@H](C)O)C(=O)Nc1ccc2c(C)cc(=O)oc2c1 (Ac-TARK(Decanoyl)-{AMC})
Which of these two has the smaller recorded Activity: A or B ? Choose, then provide that item's label.
B

----------
molecular target: NAD-dependent protein deacylase sirtuin-5, mitochondrial (Homo sapiens); assay: Substrate activity at human N-terminal His-tagged SIRT5 (34 to 302 residues) expressed in Escherichia coli at 50 uM measured after 2 hrs in presence of NAD+ and trypsin by fluorescence assay
*1 amine or outer side, *2 acyl side, *3 side chain or, on linkers, in order; H or OH if unused. Where a SMILES comes first, the peptide text is derived from it. The star is where a group is joined. AMC = Cc1cc(=O)oc2cc(N*)ccc12; Suc = O=C(CCC(=O)[*:2])[*:1]
EXPERIMENTAL ENDPOINT: Activity (RFU)

[a] CC[C@H](C)[C@H](NC(C)=O)C(=O)N[C@@H](CCCNC(=N)N)C(=O)N[C@H](C(=O)N[C@@H](CCCCNC(=O)CCC(=O)O)C(=O)Nc1ccc2c(C)cc(=O)oc2c1)[C@@H](C)CC (Ac-IRIK(Suc)-{AMC})
[b] CC(=O)NCCCC[C@H](NC(=O)[C@H](CCCNC(=N)N)NC(=O)[C@H](C)NC(=O)[C@@H](NC(C)=O)[C@@H](C)O)C(=O)Nc1ccc2c(C)cc(=O)oc2c1 (Ac-TARK(Ac)-{AMC})
Which of these two has the smaller recorded Activity: a or b ? Choose, then provide that item's label.
b
